Experiment: Drug excretion in bile of bile duct cannulated rat
Type: ADME
Settings: read-out: Drug excretion

smilesRepresentation: N#Cc1cc(S(=O)(=O)Nc2ccc(F)cn2)ccc1Oc1ccc(CO)c(Cl)c1
dose excreted: 10%
--
smilesRepresentation: N#Cc1ccc(Oc2ccc(S(=O)(=O)Nc3ccc(F)cn3)cc2C#N)cc1Cl
dose excreted: < 0.5%

---

Test: Octanol-water partition co-efficient, log D of the compound by shake flask method
Assay type: physicochemical

smilesRepresentation: N#Cc1cc(S(=O)(=O)Nc2ccc(F)cn2)ccc1Oc1ccc(F)c(Cl)c1
logD: 2.3
//
smilesRepresentation: N#Cc1ccc(Oc2ccc(S(=O)(=O)Nc3ccc(F)cn3)cc2C#N)cc1Cl
logD: 1.8
//
smilesRepresentation: N#Cc1cc(Oc2ccc(S(=O)(=O)Nc3ccc(F)cn3)cc2C#N)ccc1F
logD: 1.5
//
smilesRepresentation: N#Cc1cc(S(=O)(=O)Nc2ccc(F)cn2)ccc1Oc1ccc(CO)c(Cl)c1
logD: 2.1
//
smilesRepresentation: N#Cc1ccc(Oc2ccc(S(=O)(=O)Nc3ccc(F)cn3)cc2C#N)c(Cl)c1
logD: 1.9
//
smilesRepresentation: N#Cc1cc(Oc2ccc(S(=O)(=O)Nc3ccc(F)cn3)cc2C#N)ccc1Cl
logD: 2
//
smilesRepresentation: N#Cc1ccc(Oc2ccc(S(=O)(=O)Nc3ccc(F)cn3)cc2C#N)cc1F
logD: 1.4

---

Test: Intrinsic clearance in human liver microsomes
Format: ADME
Settings: read-out: CLH

smilesRepresentation: N#Cc1ccc(Oc2ccc(S(=O)(=O)Nc3ccc(F)cn3)cc2C#N)cc1
microsomal CLint: < 8 µL/min/mg

smilesRepresentation: N#Cc1ccc(Oc2ccc(S(=O)(=O)Nc3ccc(F)cn3)cc2C#N)c(Cl)c1
microsomal CLint: < 8 µL/min/mg

smilesRepresentation: N#Cc1ccc(Oc2ccc(S(=O)(=O)Nc3ccc(F)cn3)cc2C#N)cc1F
microsomal CLint: < 8 µL/min/mg

smilesRepresentation: N#Cc1cc(S(=O)(=O)Nc2ccc(F)cn2)ccc1Oc1ccc(CO)c(Cl)c1
microsomal CLint: < 10 µL/min/mg

smilesRepresentation: N#Cc1ccc(Oc2ccc(S(=O)(=O)Nc3ccc(F)cn3)cc2C#N)cc1Cl
microsomal CLint: < 13 µL/min/mg
